Collected melting point values appear next to each entry.

Known melting point results, listed for orientation:
COCCCNCC(=O)Nc1nc(-c2ccccc2)c(-c2ccc(=O)n(C(C)C)n2)s1.Cl | > 250 °C
COCCNCCC(=O)Nc1nc(-c2ccccc2)c(-c2ccc(=O)n(C(C)C)n2)s1 | 167 to 168 °C
CC(C)n1nc(-c2sc(NCc3ccco3)nc2-c2ccccc2)ccc1=O | 115 to 116 °C
Cc1ccccc1C(=O)Nc1nc(-c2ccccc2)c(-c2ccc(=O)n(C(C)C)n2)s1 | 221 to 222 °C
CC(C)NC(=O)c1nc(-c2ccccc2)c(-c2ccc(=O)n(C)n2)s1 | 154 to 154.5 °C

Q: So what does the record say about melting point for CC(C)n1nc(-c2sc(NC(=O)c3ccc(CN4CCN(C)CC4)cc3)nc2-c2ccccc2)ccc1=O ?
Result: 224 to 227 °C

Q: Request: COc1ccc(C(=O)Nc2nc(-c3ccccc3)c(-c3ccc(=O)n(C(C)C)n3)s2)cc1
Result: 219 to 221 °C

Q: Request: CCNC(=O)c1nc(-c2ccccc2)c(-c2ccc(=O)n(C(C)C)n2)s1
Result: 172 to 174 °C

Q: Request: CC(C)n1nc(-c2sc(NC(=O)c3ccccc3)nc2-c2ccccc2)ccc1=O
Result: 126 to 129 °C

Q: Request: CC(C)n1nc(-c2sc(NC(=O)CN3CCOCC3)nc2-c2ccccc2)ccc1=O.Cl
Result: 252 to 253 °C

====

Collected melting point values appear next to each entry.

CC(=O)N1CCN(CC(=O)Nc2nc(-c3ccccc3)c(-c3ccc(=O)n(C(C)C)n3)s2)CC1 | 220 to 222 °C

Now turn to the next molecule.
Q: So what does the record say about melting point for CC(C)n1nc(-c2sc(NC(=O)c3ccc(Cl)cc3)nc2-c2ccccc2)ccc1=O ?
Result: 205 to 206 °C

====

Collected Ki values appear next to each entry.
TARGET OR TEST SYSTEM: human A2a receptor (Homo sapiens, UniProt P29274)
Sequence (P29274 whole entry): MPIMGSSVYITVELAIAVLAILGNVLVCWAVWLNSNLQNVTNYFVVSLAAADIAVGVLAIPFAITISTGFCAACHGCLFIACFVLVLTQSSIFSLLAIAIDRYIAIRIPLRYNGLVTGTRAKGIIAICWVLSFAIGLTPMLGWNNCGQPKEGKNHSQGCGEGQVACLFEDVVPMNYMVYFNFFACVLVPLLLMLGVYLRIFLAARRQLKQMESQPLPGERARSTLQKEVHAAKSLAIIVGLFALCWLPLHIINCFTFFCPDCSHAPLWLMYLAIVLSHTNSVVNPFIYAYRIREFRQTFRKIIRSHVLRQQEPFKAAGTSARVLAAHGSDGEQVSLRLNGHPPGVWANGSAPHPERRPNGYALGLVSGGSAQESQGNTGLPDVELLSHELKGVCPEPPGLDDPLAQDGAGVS
ASSAY: Adenosine antagonistic activity, radioligand binding with [3H]CGS 21680
TEST CONTEXT: [3H]CGS 21680, 20 nM
Just the number in nM, nothing appended.

COc1ccc(CC(=O)Nc2nc(-c3ccccc3)c(-c3ccc(=O)n(C(C)C)n3)s2)cc1 | 1.22
CC(C)n1nc(-c2sc(NC(=O)CNCc3ccncc3)nc2-c2ccccc2)ccc1=O | 1.22
CCCCCC(=O)Nc1nc(-c2ccccc2)c(-c2ccc(=O)n(C(C)C)n2)s1 | 1.46

Q: So what does the record say about Ki for CC(C)n1nc(-c2sc(C(=O)NCc3ccncc3)nc2-c2ccccc2)ccc1=O ?
Result: 1.14

Q: Request: CC(C)n1nc(-c2sc(NC(=O)c3ccccc3)nc2-c2ccc(F)cc2)ccc1=O
Result: 1.23

Q: Request: CCNC(=O)c1nc(-c2ccccc2)c(-c2ccc(=O)n(C(C)C)n2)s1
Result: 1.52

Q: Request: Cc1cccc(NC(=O)Nc2nc(-c3ccccc3)c(-c3ccc(=O)n(C(C)C)n3)s2)c1
Result: 3.08

Q: Request: CNc1nc(-c2ccccc2)c(-c2ccc(=O)n(C(C)C)n2)s1
Result: 1.63

====

Collected melting point values appear next to each entry.

Known melting point results, listed for orientation:
CC(C)n1nc(-c2sc(C(=O)NCCN3CCOCC3)nc2-c2ccccc2)ccc1=O | 196.5 to 197.5 °C
C=CCn1nc(-c2sc(C(N)=O)nc2-c2ccccc2)ccc1=O | 198 to 199.5 °C
CC(C)n1nc(-c2sc(NCCN3CCCCC3)nc2-c2ccccc2)ccc1=O | 165 to 166 °C
CCOCCNCC(=O)Nc1nc(-c2ccccc2)c(-c2ccc(=O)n(C(C)C)n2)s1.Cl | 252 to 253 °C
Nc1nc(-c2ccccc2)c(-c2ccc(=O)n(Cc3ccccc3)n2)s1 | 225 to 228 °C

Q: So what does the record say about melting point for CC(C)n1nc(-c2sc(NC(=N)N)nc2-c2ccccc2)ccc1=O ?
Result: > 250 °C

Q: Request: CC(C)n1nc(-c2sc(C(=O)NCC(N)=O)nc2-c2ccccc2)ccc1=O
Result: 247.5 to 249 °C

The measurements presented in this section are drawn from patent US20050004134A1.
